# targetOrTestSystem: HIV-1 JR-CSF Env K421A (HIV-1 (isolate JR-CSF)) (UniProt P20871)
# measurementDescription: cell-based or functional assay
attributeMeasured: Fold IC50 increase relative to wild-type (fold)
Give bare numbers, in fold.

- binder: "PGT-126 (antibody, V domains shown) VH: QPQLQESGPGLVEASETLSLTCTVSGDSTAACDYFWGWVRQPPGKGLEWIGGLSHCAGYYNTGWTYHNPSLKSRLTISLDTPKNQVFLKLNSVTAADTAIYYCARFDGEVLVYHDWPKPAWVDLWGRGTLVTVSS VL: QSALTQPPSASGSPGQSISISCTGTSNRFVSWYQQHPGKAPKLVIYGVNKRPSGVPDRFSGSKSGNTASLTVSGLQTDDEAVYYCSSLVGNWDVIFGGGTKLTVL"
  Fold IC50 increase relative to wild-type, fold: 0.7
- binder: "PGT-125 (antibody, V domains shown) VH: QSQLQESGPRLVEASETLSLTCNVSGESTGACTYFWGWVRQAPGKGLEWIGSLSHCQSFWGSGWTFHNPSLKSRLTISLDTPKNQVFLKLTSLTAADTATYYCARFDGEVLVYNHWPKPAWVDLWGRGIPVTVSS VL: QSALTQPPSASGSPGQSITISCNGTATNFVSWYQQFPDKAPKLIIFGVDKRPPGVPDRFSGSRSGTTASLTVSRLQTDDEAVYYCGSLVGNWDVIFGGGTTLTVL"
  Fold IC50 increase relative to wild-type, fold: 1.2
- binder: "PGT-127 (antibody, V domains shown) VH: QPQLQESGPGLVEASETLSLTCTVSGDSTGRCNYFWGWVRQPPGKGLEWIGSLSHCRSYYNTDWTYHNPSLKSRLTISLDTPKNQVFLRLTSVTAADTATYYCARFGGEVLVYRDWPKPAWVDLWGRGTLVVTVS VL: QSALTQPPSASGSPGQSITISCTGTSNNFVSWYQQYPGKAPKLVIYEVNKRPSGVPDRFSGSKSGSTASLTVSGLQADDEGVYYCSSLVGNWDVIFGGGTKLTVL"
  Fold IC50 increase relative to wild-type, fold: 1.5
- binder: "PGT-135 (antibody, V domains shown) VH: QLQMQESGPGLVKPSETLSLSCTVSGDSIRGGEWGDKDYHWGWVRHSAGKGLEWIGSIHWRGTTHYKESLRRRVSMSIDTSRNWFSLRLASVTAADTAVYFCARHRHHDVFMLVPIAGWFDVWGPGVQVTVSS VL: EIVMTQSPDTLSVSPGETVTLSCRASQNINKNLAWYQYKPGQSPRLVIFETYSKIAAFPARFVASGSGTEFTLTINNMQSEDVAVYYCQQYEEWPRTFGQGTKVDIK"
  Fold IC50 increase relative to wild-type, fold: 0.3

Reported Fold IC50 increase relative to wild-type for PGT-123 (antibody, V domains shown) VH: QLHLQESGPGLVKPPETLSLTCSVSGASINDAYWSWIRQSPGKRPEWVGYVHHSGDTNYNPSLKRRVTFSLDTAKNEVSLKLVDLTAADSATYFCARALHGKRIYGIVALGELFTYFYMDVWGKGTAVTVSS VL: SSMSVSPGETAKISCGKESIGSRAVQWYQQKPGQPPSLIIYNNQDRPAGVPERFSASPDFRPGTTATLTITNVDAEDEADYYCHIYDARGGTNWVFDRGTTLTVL : what is it?
0.9

Value source: patent US20200024330A1
